- Measurement Description: Pharmacokinetics and tissue distribution (lung, plasma, heart, kidney) of co-solvent formulations, intratracheal bolus aerosol
- Assay type: in vivo, Sprague-Dawley rats
- Protocol Conditions: Sprague-Dawley, rat, heart, other: intratracheal bolus aerosol (nebulizing catheter), 4 mg/kg, Pirfenidone, heart tissue, Mean, Group 1; 0.333 hr; about 4 mg/kg IT aerosol
Metric: concentration at 0.333 hr (ng/g)
Numeric only. Scale: ng/g

## Input Using the record for Cc1ccc(=O)n(-c2ccccc2)c1 [pirfenidone, 5-methyl-1-phenyl-2-(1H)-pyridone] , report its concentration at 0.333 hr.
## Output 3850

###

- Measurement Description: Co-solvent and surfactant effects on pirfenidone saturation solubility;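 further: samples equilibrated by overnight agitation at ambient temperature, with solubility taken from the supernatant after undissolved solid was removed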
- Type: physicochemical
- Protocol Conditions: aqueous co-solvent/surfactant solvent system, pH 4.7, aqueous with cosolvent or surfactant or cyclodextrin, thermodynamic from solid, 4% EtOH, 0.04% PS80, 96.0% water, pH 4.7
Metric: solubility (mg/mL)
Report as a plain number; the unit mg/mL is understood.

## Input Please look up its solubility: Cc1ccc(=O)n(-c2ccccc2)c1 [pirfenidone, 5-methyl-1-phenyl-2-(1H)-pyridone]
## Output 22.5
